Tested on: Mycobacterium tuberculosis
Assay Remarks: Antibacterial activity against replicative stage Mycobacterium tuberculosis H37Rv after 7 days by MABA
Type: functional
Condition Summary: 168 h

# Compound Structure, Qualifying Sign, MIC [µM]
data = [
    ("N#C/C(=C\\c1cccs1)c1nc2ccccc2s1", ">", 93.3),
    ("N#C/C(=C\\c1ccc([N+](=O)[O-])o1)c1nc2ccccc2s1", ">", 84.2),
    ("N#C/C(=C\\c1c[nH]c2ccccc12)c1nc2ccccc2s1", ">", 83.1),
    ("N#C/C(=C\\c1ccc(-c2cccc(C(=O)O)c2)o1)c1nc2ccccc2s1", ">", 67.2),
    ("N#C/C(=C\\c1ccc[nH]1)c1nc2ccccc2s1", ">", 99.6),
    ("N#C/C(=C\\c1ccc(O)cc1)c1nc2ccccc2s1", ">", 89.9),
    ("N#C/C(=C\\c1ccc2c(c1)OCO2)c1nc2ccccc2s1", "=", 81.7),
    ("NNC(=O)c1ccncc1", "=", 0.4),
    ("COc1cc(/C=C(\\C#N)c2nc3ccccc3s2)ccc1O", "=", 20.3),
    ("COc1cc(/C=C(\\C#N)c2nc3ccccc3s2)cc(OC)c1OC", ">", 71),
    ("N#C/C(=C\\c1ccc(-c2cc(C(=O)O)cc(C(=O)O)c2)o1)c1nc2ccccc2s1", "=", 60.1),
    ("N#C/C(=C\\c1ccccc1OCC(=O)O)c1nc2ccccc2s1", "=", 2.32),
    ("N#C/C(=C\\c1ccc([N+](=O)[O-])s1)c1nc2ccccc2s1", ">", 79.9),
    ("N#C/C(=C\\c1ccc(-c2ccc(C(=O)O)cc2)o1)c1nc2ccccc2s1", ">", 67.2),
    ("N#C/C(=C\\c1ccc(-c2ccc(C(=O)O)cc2)s1)c1nc2ccccc2s1", "=", 2.01),
    ("N#C/C(=C\\c1ccc(OCC(=O)O)cc1)c1nc2ccccc2s1", "=", 4.64),
    ("N#C/C(=C\\c1ccc(-c2cccc(C(=O)O)c2)s1)c1nc2ccccc2s1", "=", 64.4),
    ("N#C/C(=C\\c1ccc(F)cc1)c1nc2ccccc2s1", "=", 89.3),
    ("COc1ccc(/C=C(\\C#N)c2nc3ccccc3s2)cc1OC", ">", 77.6),
]

---

Assay Remarks: Growth inhibition of mouse RAW264.7 cells at 50 ug/ml after 48 hrs by MTT assay relative to control
Type: cell-based
Condition Summary: read-out: GI
Parameter: inhibition at 48 h, 50 ug/ml (%)

# Compound Structure, Parameter, Recorded Value
rows = [
    ("N#C/C(=C\\c1ccc(-c2ccc(C(=O)O)cc2)o1)c1nc2ccccc2s1", "inhibition at 48 h, 50 ug/ml", 15.2),
    ("N#C/C(=C\\c1ccc(-c2cccc(C(=O)O)c2)o1)c1nc2ccccc2s1", "inhibition at 48 h, 50 ug/ml", 3.12),
    ("N#C/C(=C\\c1ccc([N+](=O)[O-])s1)c1nc2ccccc2s1", "inhibition at 48 h, 50 ug/ml", 60.3),
    ("COc1cc(/C=C(\\C#N)c2nc3ccccc3s2)cc(OC)c1OC", "inhibition at 48 h, 50 ug/ml", 12.6),
    ("N#C/C(=C\\c1c[nH]c2ccccc12)c1nc2ccccc2s1", "inhibition at 48 h, 50 ug/ml", 45.7),
    ("N#C/C(=C\\c1ccc2c(c1)OCO2)c1nc2ccccc2s1", "inhibition at 48 h, 50 ug/ml", 45.7),
    ("N#C/C(=C\\c1ccc(O)cc1O)c1nc2ccccc2s1", "inhibition at 48 h, 50 ug/ml", 45.7),
    ("N#C/C(=C\\c1ccc(-c2cc(C(=O)O)cc(C(=O)O)c2)o1)c1nc2ccccc2s1", "inhibition at 48 h, 50 ug/ml", 14.4),
    ("N#C/C(=C\\c1ccco1)c1nc2ccccc2s1", "inhibition at 48 h, 50 ug/ml", 47.3),
    ("COc1cc(/C=C(\\C#N)c2nc3ccccc3s2)ccc1O", "inhibition at 48 h, 50 ug/ml", 34.8),
    ("N#C/C(=C\\c1ccc(F)cc1)c1nc2ccccc2s1", "inhibition at 48 h, 50 ug/ml", 10.6),
    ("N#C/C(=C\\c1ccc(O)cc1)c1nc2ccccc2s1", "inhibition at 48 h, 50 ug/ml", 2.26),
    ("COc1ccc(/C=C(\\C#N)c2nc3ccccc3s2)cc1OC", "inhibition at 48 h, 50 ug/ml", 32.5),
    ("N#C/C(=C\\c1ccc(-c2ccc(C(=O)O)cc2)s1)c1nc2ccccc2s1", "inhibition at 48 h, 50 ug/ml", 5.64),
    ("N#C/C(=C\\c1cccs1)c1nc2ccccc2s1", "inhibition at 48 h, 50 ug/ml", 17.3),
    ("N#C/C(=C\\c1ccc([N+](=O)[O-])o1)c1nc2ccccc2s1", "inhibition at 48 h, 50 ug/ml", 19.6),
    ("N#C/C(=C\\c1ccc(-c2cccc(C(=O)O)c2)s1)c1nc2ccccc2s1", "inhibition at 48 h, 50 ug/ml", 18.9),
    ("N#C/C(=C\\c1ccc[nH]1)c1nc2ccccc2s1", "inhibition at 48 h, 50 ug/ml", 56.4),
]
